Reported pKa values follow for various compounds
# Condition notes: acidic group
// return a plain number; no unit text

entry_smiles=Nc1cc(N)c2cccnc2c1O measurement_label=pKa reported_value=10.8
entry_smiles=CCCCP(=O)(O)CCCC measurement_label=pKa reported_value=3.22
entry_smiles=Cc1ccc(C(=O)O)c(Cl)c1 measurement_label=pKa reported_value=3.27
entry_smiles=Cc1cc(C)c(O)c(C(C)C)c1 measurement_label=pKa reported_value=11.2
entry_smiles=O=C(O)c1cccc2ccc[nH+]c12 measurement_label=pKa reported_value=1.9

Form field pKa, entry `O=c1cc(O)c2ccccc2o1` : 4.1

Reported pKa for `CC/C(N=O)=N/O` was 5.8

pKa recorded for this compound, `N#CC(C#N)=NNc1ccccc1O` , is 6.1

Memo: `CCOC(=O)COc1ccc(Cc2ccc(O)c(C[NH3+])c2)c(Cl)c1Cl` , reported pKa: 8.73

Sample `COC(=O)c1ccc(O)cc1` ; pKa observed: 8.34

Lab note: measured pKa of `Cc1cc(O)ccc1C(C)C` was 10.3

Recorded result, `C/C=C/CCC(=O)O` , pKa: 4.72

Looking up `COc1ccc(O)c(CN(C)C)c1` , I see its pKa listed as 11.5

The compound `Oc1c(I)cc(Cl)c2cccnc12` showed pKa equal to 7.9

Notebook: `CC/C=C/C(=O)O` , pKa read as 4.69

The value of pKa measured for the compound `Oc1cccc[n+]1OCc1ccccc1` turned out to be -1.7
